Assay: Ratio of quotient (binding IC50)/(activation EC50 for the poly (U) assay)
Measured Rn values are reported for all entries that follow.
parameter: Rn

>>> observed_value("Nc1ncnc2c1ncn2[C@@H]1O[C@H](COP(=O)(O)O[C@@H]2[C@H](O)[C@@H](COP(=O)(O)O[C@@H]3[C@H](O)[C@@H](COP(=O)(O)O)O[C@H]3n3cnc4c(N)ncnc43)O[C@H]2n2cnc3c(N)ncnc32)[C@@H](O)[C@H]1O")
1
>>> observed_value("Cc1nc(N)c2ncn([C@@H]3O[C@H](COP(=O)(O)OP(=O)(O)OP(=O)(O)O)[C@@H](O)[C@H]3OP(=O)(O)OC[C@H]3O[C@@H](n4cnc5c(N)ncnc54)[C@H](OP(=O)(O)OC[C@H]4O[C@@H](n5cnc6c(N)ncnc65)[C@H](O)[C@@H]4O)[C@@H]3O)c2n1")
0.7
>>> observed_value("Cc1nc(N)c2ncn([C@@H]3O[C@H](COP(=O)(O)O[C@@H]4[C@H](O)[C@@H](COP(=O)(O)O[C@@H]5[C@H](O)[C@@H](COP(=O)(O)O)O[C@H]5n5cnc6c(N)nc(C)nc65)O[C@H]4n4cnc5c(N)nc(C)nc54)[C@@H](O)[C@H]3O)c2n1")
1.4
>>> observed_value("Cc1nc(N)c2ncn([C@@H]3O[C@H](COP(=O)(O)O[C@@H]4[C@H](O)[C@@H](COP(=O)(O)O[C@@H]5[C@H](O)[C@@H](COP(=O)(O)OP(=O)(O)OP(=O)(O)O)O[C@H]5n5cnc6c(N)ncnc65)O[C@H]4n4cnc5c(N)ncnc54)[C@@H](O)[C@H]3O)c2n1")
0.06

----------
Measured Crel values are reported for all entries that follow.
Experiment: Relative concentration required to cause 50% degradation of the [32P]-pC11U2C7
parameter: Crel

>>> observed_value("Cc1nc(N)c2ncn([C@@H]3O[C@H](COP(=O)(O)O[C@@H]4[C@H](O)[C@@H](COP(=O)(O)O[C@@H]5[C@H](O)[C@@H](COP(=O)(O)OP(=O)(O)OP(=O)(O)O)O[C@H]5n5cnc6c(N)ncnc65)O[C@H]4n4cnc5c(N)ncnc54)[C@@H](O)[C@H]3O)c2n1")
1.5
>>> observed_value("Cc1nc(N)c2ncn([C@@H]3O[C@H](COP(=O)(O)OP(=O)(O)OP(=O)(O)O)[C@@H](O)[C@H]3OP(=O)(O)OC[C@H]3O[C@@H](n4cnc5c(N)ncnc54)[C@H](OP(=O)(O)OC[C@H]4O[C@@H](n5cnc6c(N)ncnc65)[C@H](O)[C@@H]4O)[C@@H]3O)c2n1")
4
>>> observed_value("Cc1nc(N)c2ncn([C@@H]3O[C@H](COP(=O)(O)O[C@@H]4[C@H](O)[C@@H](COP(=O)(O)O[C@@H]5[C@H](O)[C@@H](COP(=O)(O)OP(=O)(O)OP(=O)(O)O)O[C@H]5n5cnc6c(N)nc(C)nc65)O[C@H]4n4cnc5c(N)nc(C)nc54)[C@@H](O)[C@H]3O)c2n1")
20
>>> observed_value("Nc1ncnc2c1ncn2[C@@H]1O[C@H](COP(=O)(O)O[C@@H]2[C@H](O)[C@@H](COP(=O)(O)O[C@@H]3[C@H](O)[C@@H](COP(=O)(O)O)O[C@H]3n3cnc4c(N)ncnc43)O[C@H]2n2cnc3c(N)ncnc32)[C@@H](O)[C@H]1O")
1
